Where these numbers come from: patent US20240417436A1

target or test system: IL-2 receptor βγ complex (CD122/CD132) on HEK-Blue IL-2Rβγ reporter cells (UniProt P14784)
Sequence (P14784 27-551 limits assumed, chain 1 of 2): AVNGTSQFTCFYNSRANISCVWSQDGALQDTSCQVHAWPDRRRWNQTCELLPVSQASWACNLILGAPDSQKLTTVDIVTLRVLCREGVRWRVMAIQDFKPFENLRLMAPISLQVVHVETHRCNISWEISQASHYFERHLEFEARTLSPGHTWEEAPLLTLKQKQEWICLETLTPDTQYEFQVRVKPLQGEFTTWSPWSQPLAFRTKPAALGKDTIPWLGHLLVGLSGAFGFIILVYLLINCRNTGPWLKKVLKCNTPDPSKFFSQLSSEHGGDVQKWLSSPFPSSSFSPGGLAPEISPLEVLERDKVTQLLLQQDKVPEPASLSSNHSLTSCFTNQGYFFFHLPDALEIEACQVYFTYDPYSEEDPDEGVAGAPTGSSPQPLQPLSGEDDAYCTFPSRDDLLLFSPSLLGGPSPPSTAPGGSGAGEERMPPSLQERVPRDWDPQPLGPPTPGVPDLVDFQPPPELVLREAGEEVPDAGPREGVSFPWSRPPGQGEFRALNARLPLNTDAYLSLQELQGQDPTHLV
Sequence (P31785 23-369 limits assumed, chain 2 of 2, further chain): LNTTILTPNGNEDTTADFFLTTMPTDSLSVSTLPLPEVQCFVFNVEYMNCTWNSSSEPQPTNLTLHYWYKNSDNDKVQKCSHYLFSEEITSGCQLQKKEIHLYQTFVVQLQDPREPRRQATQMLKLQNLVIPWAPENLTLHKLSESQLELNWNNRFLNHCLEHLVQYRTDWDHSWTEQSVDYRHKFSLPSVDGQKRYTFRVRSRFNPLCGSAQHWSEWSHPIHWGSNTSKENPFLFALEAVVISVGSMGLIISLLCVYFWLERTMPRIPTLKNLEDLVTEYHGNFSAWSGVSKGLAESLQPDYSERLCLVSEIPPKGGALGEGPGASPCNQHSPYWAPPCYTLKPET
test name: cell-based or functional assay
Bridges are numbered along the chain shown (N, C = ends). Primed or numbered codes have the meaning given here. [ ]: non-standard residue; d: D form. Yn3(5) = tyrosine residue modified with an azide-capped PEG9 group (O-(PEG9-azido)-tyrosine); Ygp(5) = O-(8x polyethylene glycol-amino)-tyrosine (Tyr-PEG8-amine); Ygp = O-(8x polyethylene glycol-amino)-tyrosine; Yn3 = O-(9x polyethylene glycol-azido)-tyrosine; PEG9′ = polyethylene glycol spacer of 9 units; hSer = N[C@@H](CCO)C(=O)O; Nle = CCCC[C@H](N)C(=O)O
The entries below come with measured Average EC50, HEK-Blue IL-2R (CD122+, CD132+) reporter assay values attached.
Record the value in nM, omitting the unit from your answer.

These solved cases illustrate the format of a correct answer.
{"binder": "CMP-318 (ligand, lactam N-32) SGRVANLVGAPTSSSTKKTQLQLEHLLLDLQEILNGINNYKNPKLTR[Nle]L[hSer][Yn3]KF[Ygp][Nle]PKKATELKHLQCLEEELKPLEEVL[hSer]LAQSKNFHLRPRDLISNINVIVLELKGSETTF[hSer]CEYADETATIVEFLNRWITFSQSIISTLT", "observed result": 3.37}
{"binder": "CMP-304 (ligand, bridge N-29 via PEG9′) PLGLAGAPTSSSTKKTQLQLEHLLLDLQEILNGINNYKNPKLTR[Nle]L[hSer][Yn3]KF[Ygp][Nle]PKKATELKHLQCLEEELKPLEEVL[hSer]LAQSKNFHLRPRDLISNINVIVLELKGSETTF[hSer]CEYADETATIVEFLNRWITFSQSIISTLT", "observed result": 0.34}
{"binder": "CMP-321, Matriptase cleaved molecule (ligand, lactam N-32; also: treated with matriptase (cleavage site not given here)) SGRVQPLVDAPTSSSTKKTQLQLEHLLLDLQEILNGINNYKNPKLTR[Nle]L[hSer][Yn3(5)]KF[Ygp(5)][Nle]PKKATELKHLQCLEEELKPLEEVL[hSer]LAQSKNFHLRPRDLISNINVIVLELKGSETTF[hSer]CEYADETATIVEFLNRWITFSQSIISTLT", "observed result": 4.22}
{"binder": "CMP-302 (ligand, lactam N-30) GPLGLAGAPTSSSTKKTQLQLEHLLLDLQEILNGINNYKNPKLTR[Nle]L[hSer][Yn3]KF[Ygp][Nle]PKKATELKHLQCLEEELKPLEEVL[hSer]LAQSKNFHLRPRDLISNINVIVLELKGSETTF[hSer]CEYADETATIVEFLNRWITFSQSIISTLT", "observed result": 0.436}
{"binder": "CMP-320, MMP2 cleaved molecule (ligand, lactam N-34; also: treated with MMP2 (cleavage site not given here)) SGRVAPQPLVDAPTSSSTKKTQLQLEHLLLDLQEILNGINNYKNPKLTR[Nle]L[hSer][Yn3(5)]KF[Ygp(5)][Nle]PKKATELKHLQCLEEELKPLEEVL[hSer]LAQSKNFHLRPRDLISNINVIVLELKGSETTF[hSer]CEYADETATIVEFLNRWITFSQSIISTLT", "observed result": 0.0392}

Next:
Entry CMP-321 (ligand, lactam N-32) SGRVQPLVDAPTSSSTKKTQLQLEHLLLDLQEILNGINNYKNPKLTR[Nle]L[hSer][Yn3(5)]KF[Ygp(5)][Nle]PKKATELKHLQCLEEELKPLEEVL[hSer]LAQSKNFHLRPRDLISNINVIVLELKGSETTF[hSer]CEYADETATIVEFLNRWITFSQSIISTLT — recorded Average EC50, HEK-Blue IL-2R (CD122+, CD132+) reporter assay = 4.2
